target: the molecule itself; test: MST; 10 nM NT-647-labelled protein titrated with the same protein unlabelled (0–90.5 μM, 1:1 dilutions); Monolith NT.115; 25 °C; 10 mM HEPES pH 7.5, 500 mM NaCl, 0.5 mM TCEP, 0.05% Tween 20; constant is of monomer to dimer
pKd: −log10 of the molar value.
resultType: pKd

>>> testresult("SLP-76 SAM domain (residues 1–78), recombinant, His-tagged (domain or fragment, human, UniProt Q13094 1-78, looked up, NT-647 dye coupled to primary amines on the labelled copy used in MST (one label per protein molecule); the titrated copy is unlabelled, SLP-76 (LCP2), human, N-terminal sterile alpha motif (SAM) domain, residues 1-78 (helices H1-H5); Cloned into the NdeI/BamHI sites of pET-20b(+); also called SLP-76 N-terminal SAM domain; H1–5; source: E. coli BL21(DE3), pET-20b(+), soluble fraction purified by Ni2+ column) MALRNVPFRSEVLGWDPDSLADYFKKLNYKDCEKAVKKYHIDGARFLNLTENDIQKFPKLRVPILSKLSQEINKNEER")
5.60
